# TARGET_OR_SYSTEM: Dual specificity protein phosphatase 23 (Homo sapiens, UniProt Q9BVJ7)
# Sequence (Q9BVJ7 whole entry): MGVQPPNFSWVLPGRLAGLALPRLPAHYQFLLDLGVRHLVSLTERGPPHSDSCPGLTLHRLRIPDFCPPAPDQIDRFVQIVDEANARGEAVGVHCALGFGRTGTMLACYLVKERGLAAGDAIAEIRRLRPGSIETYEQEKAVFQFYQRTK
ASSAY_METRIC: pIC50
When answering, recall that pIC50 equals minus log10 of the concentration in mol/L, and write that number alone.

For CCCNC(=O)COc1ccc(-c2oc3cc(O)c(C(=O)O)cc3c2C#Cc2cccc(Cl)c2)cc1 the compound record lists pIC50 as 5.47

====

# TARGET_OR_SYSTEM: Receptor-type tyrosine-protein phosphatase epsilon (Homo sapiens, UniProt P23469)
# Sequence (P23469 whole entry): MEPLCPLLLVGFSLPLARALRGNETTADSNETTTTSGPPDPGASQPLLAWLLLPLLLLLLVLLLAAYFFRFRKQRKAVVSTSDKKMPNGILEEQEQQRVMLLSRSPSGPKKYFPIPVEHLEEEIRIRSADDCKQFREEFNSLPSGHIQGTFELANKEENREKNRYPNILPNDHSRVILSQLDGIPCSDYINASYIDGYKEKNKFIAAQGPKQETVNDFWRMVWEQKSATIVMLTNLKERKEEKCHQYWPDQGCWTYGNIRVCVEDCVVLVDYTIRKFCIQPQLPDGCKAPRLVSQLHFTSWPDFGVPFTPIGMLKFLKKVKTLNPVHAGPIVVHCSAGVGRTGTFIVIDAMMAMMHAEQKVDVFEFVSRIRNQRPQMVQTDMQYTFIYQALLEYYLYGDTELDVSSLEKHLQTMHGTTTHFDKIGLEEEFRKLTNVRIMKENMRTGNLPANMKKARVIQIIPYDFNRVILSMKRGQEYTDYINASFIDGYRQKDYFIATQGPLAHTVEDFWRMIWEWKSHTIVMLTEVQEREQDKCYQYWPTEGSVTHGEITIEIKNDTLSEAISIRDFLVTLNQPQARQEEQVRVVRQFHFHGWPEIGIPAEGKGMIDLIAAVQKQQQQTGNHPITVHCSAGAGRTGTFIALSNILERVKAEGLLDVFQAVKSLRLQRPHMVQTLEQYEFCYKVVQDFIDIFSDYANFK
# EXPERIMENT: Inhibition of recombinant PTPepsilon (unknown origin) using pNPP as substrate by spectrophotometric analysis
pIC50: −log10 of the molar value.
ASSAY_METRIC: pIC50

Value sought: pIC50, system Receptor-type tyrosine-protein phosphatase epsilon (Homo sapiens, UniProt P23469), item CCCNC(=O)COc1ccc(-c2oc3cc(O)c(C(=O)O)cc3c2C#Cc2cccc(Cl)c2)cc1 . Result: < 4.60
